Task for the reader: assign each of the following compounds its reported MIC.
Test system: MDCK
EXPERIMENT: Minimum inhibitory concentration required for antiviral activity to reduce Influenza A virus (Ishikawa) induced cytopathicity in Madin-Darby canine kidney cells (MDCK)
Assay type: functional
MEASUREMENT_CONTEXT: Canis lupus familiaris

Inquiry: Fill in the blank: the reported MIC of "CCc1nc2c(N)ncnc2n1[C@H]1C[C@H](O)[C@@H](CO)O1" is ____.
Reply text: > 200 µg/mL

Inquiry: Fill in the blank: the reported MIC of "C#Cc1nc2c(N)ncnc2n1[C@H]1C[C@H](O)[C@@H](CO)O1" is ____.
Reply text: > 20 µg/mL

Inquiry: Fill in the blank: the reported MIC of "CCCCCCCc1nc2c(N)ncnc2n1[C@H]1C[C@H](O)[C@@H](CO)O1" is ____.
Reply text: 20 µg/mL

Inquiry: Fill in the blank: the reported MIC of "CCCC#Cc1nc2c(N)ncnc2n1[C@H]1C[C@H](O)[C@@H](CO)O1" is ____.
Reply text: 30 µg/mL

Inquiry: Fill in the blank: the reported MIC of "CC#Cc1nc2c(N)ncnc2n1[C@H]1C[C@H](O)[C@@H](CO)O1" is ____.
Reply text: > 200 µg/mL

Inquiry: Fill in the blank: the reported MIC of "CCCCCC#Cc1nc2c(N)ncnc2n1[C@H]1C[C@H](O)[C@@H](CO)O1" is ____.
Reply text: > 100 µg/mL

Inquiry: Fill in the blank: the reported MIC of "C/C=C\c1nc2c(N)ncnc2n1[C@H]1C[C@H](O)[C@@H](CO)O1" is ____.
Reply text: > 200 µg/mL

Inquiry: Fill in the blank: the reported MIC of "CCC/C=C\c1nc2c(N)ncnc2n1[C@H]1C[C@H](O)[C@@H](CO)O1" is ____.
Reply text: > 200 µg/mL

Inquiry: Fill in the blank: the reported MIC of "CCCCCc1nc2c(N)ncnc2n1[C@H]1C[C@H](O)[C@@H](CO)O1" is ____.
Reply text: > 100 µg/mL

Inquiry: Fill in the blank: the reported MIC of "Nc1ncnc2c1ncn2[C@H]1C[C@H](O)[C@@H](CO)O1" is ____.
Reply text: > 200 µg/mL

Inquiry: Fill in the blank: the reported MIC of "CCCCC/C=C\c1nc2c(N)ncnc2n1[C@H]1C[C@H](O)[C@@H](CO)O1" is ____.
Reply text: 12 µg/mL

Inquiry: Fill in the blank: the reported MIC of "CCCc1nc2c(N)ncnc2n1[C@H]1C[C@H](O)[C@@H](CO)O1" is ____.
Reply text: > 200 µg/mL

* * *

Tested on: Vesicular stomatitis virus
EXPERIMENT: Minimum inhibitory concentration required for antiviral activity to reduce Vesicular stomatitis virus (VSV) induced cytopathicity in human embryonic skin-muscle cells (ESM)
Type: functional
Task for the reader: assign each of the following molecules its reported MIC.

Inquiry: Fill in the blank: the reported MIC of Nc1ncnc2c1ncn2[C@H]1C[C@H](O)[C@@H](CO)O1 [DEOXYADENOSINE] is ____.
Reply text: > 400 µg/mL

Inquiry: Fill in the blank: the reported MIC of "CCCc1nc2c(N)ncnc2n1[C@H]1C[C@H](O)[C@@H](CO)O1" is ____.
Reply text: 400 µg/mL

Inquiry: Fill in the blank: the reported MIC of "CCCCCCCc1nc2c(N)ncnc2n1[C@H]1C[C@H](O)[C@@H](CO)O1" is ____.
Reply text: > 40 µg/mL

Inquiry: Fill in the blank: the reported MIC of "CCC/C=C\c1nc2c(N)ncnc2n1[C@H]1C[C@H](O)[C@@H](CO)O1" is ____.
Reply text: > 100 µg/mL

Inquiry: Fill in the blank: the reported MIC of "CCCCCC#Cc1nc2c(N)ncnc2n1[C@H]1C[C@H](O)[C@@H](CO)O1" is ____.
Reply text: 20 µg/mL

Inquiry: Fill in the blank: the reported MIC of "CCCC#Cc1nc2c(N)ncnc2n1[C@H]1C[C@H](O)[C@@H](CO)O1" is ____.
Reply text: 70 µg/mL

Inquiry: Fill in the blank: the reported MIC of "C#Cc1nc2c(N)ncnc2n1[C@H]1C[C@H](O)[C@@H](CO)O1" is ____.
Reply text: > 4 µg/mL

Inquiry: Fill in the blank: the reported MIC of NC(=O)c1ncn([C@@H]2O[C@H](CO)[C@@H](O)[C@H]2O)n1 [RIBAVIRIN] is ____.
Reply text: > 400 µg/mL

Inquiry: Fill in the blank: the reported MIC of "C/C=C\c1nc2c(N)ncnc2n1[C@H]1C[C@H](O)[C@@H](CO)O1" is ____.
Reply text: > 100 µg/mL

Inquiry: Fill in the blank: the reported MIC of "CCCCC/C=C\c1nc2c(N)ncnc2n1[C@H]1C[C@H](O)[C@@H](CO)O1" is ____.
Reply text: > 40 µg/mL

* * *

System: Vaccinia virus
EXPERIMENT: Minimum inhibitory concentration required for antiviral activity to reduce Vaccinia virus (VV) induced cytopathicity in human embryonic skin-muscle cells (ESM)
Type: functional
MEASUREMENT_CONTEXT: Orthopoxvirus vaccinia
MEASUREMENT_TYPE: MIC (µg/mL)
Quick reminder: number only, in µg/mL, skip the unit.

Inquiry: Fill in the blank: the reported MIC of "O=c1[nH]c(=O)n([C@H]2C[C@H](O)[C@@H](CO)O2)cc1/C=C/Br" is ____.
Reply text: 2

Inquiry: Fill in the blank: the reported MIC of "NC(=O)c1ncn([C@@H]2O[C@H](CO)[C@@H](O)[C@H]2O)n1" is ____.
Reply text: 70

* * *

Task for the reader: assign each of the following molecules its reported MIC.
Test system: HEL
EXPERIMENT: Minimum inhibitory concentration required for antiviral activity to reduce Varicella Zoster virus (VZV) (Oka) induced cytopathicity in human embryonic lung cells (HEL)
Assay type: functional
Quick reminder: number only, in µg/mL, skip the unit.

Inquiry: Fill in the blank: the reported MIC of "CCCCCC#Cc1nc2c(N)ncnc2n1[C@H]1C[C@H](O)[C@@H](CO)O1" is ____.
Reply text: 15

Inquiry: Fill in the blank: the reported MIC of "CCCc1nc2c(N)ncnc2n1[C@H]1C[C@H](O)[C@@H](CO)O1" is ____.
Reply text: 20

Inquiry: Fill in the blank: the reported MIC of "CCCCC/C=C\c1nc2c(N)ncnc2n1[C@H]1C[C@H](O)[C@@H](CO)O1" is ____.
Reply text: 15

Inquiry: Fill in the blank: the reported MIC of "CCCCCc1nc2c(N)ncnc2n1[C@H]1C[C@H](O)[C@@H](CO)O1" is ____.
Reply text: 20

Inquiry: Fill in the blank: the reported MIC of "CCCC#Cc1nc2c(N)ncnc2n1[C@H]1C[C@H](O)[C@@H](CO)O1" is ____.
Reply text: 40

Inquiry: Fill in the blank: the reported MIC of "CCCCCCCc1nc2c(N)ncnc2n1[C@H]1C[C@H](O)[C@@H](CO)O1" is ____.
Reply text: 10

Inquiry: Fill in the blank: the reported MIC of O=c1[nH]c(=O)n([C@H]2C[C@H](O)[C@@H](CO)O2)cc1/C=C/Br [BRIVUDINE] is ____.
Reply text: 0.004

Inquiry: Fill in the blank: the reported MIC of "C#Cc1nc2c(N)ncnc2n1[C@H]1C[C@H](O)[C@@H](CO)O1" is ____.
Reply text: 7

Inquiry: Fill in the blank: the reported MIC of "CC#Cc1nc2c(N)ncnc2n1[C@H]1C[C@H](O)[C@@H](CO)O1" is ____.
Reply text: 40

* * *

System: ESM
EXPERIMENT: Minimum inhibitory concentration to reduce cytopathicity by 50% in morphology of human embryonic skin-muscle cells (ESM)
Assay type: functional
MEASUREMENT_TYPE: MIC

Inquiry: Fill in the blank: the reported MIC of "C#Cc1nc2c(N)ncnc2n1[C@H]1C[C@H](O)[C@@H](CO)O1" is ____.
Reply text: 10 mg/L

Inquiry: Fill in the blank: the reported MIC of "Nc1nc2c(ncn2COCCO)c(=O)[nH]1" is ____.
Reply text: > 400 mg/L

Inquiry: Fill in the blank: the reported MIC of "CC#Cc1nc2c(N)ncnc2n1[C@H]1C[C@H](O)[C@@H](CO)O1" is ____.
Reply text: > 400 mg/L

Inquiry: Fill in the blank: the reported MIC of "CCCCCC#Cc1nc2c(N)ncnc2n1[C@H]1C[C@H](O)[C@@H](CO)O1" is ____.
Reply text: > 200 mg/L

Inquiry: Fill in the blank: the reported MIC of "C/C=C\c1nc2c(N)ncnc2n1[C@H]1C[C@H](O)[C@@H](CO)O1" is ____.
Reply text: ≥ 100 mg/L

Inquiry: Fill in the blank: the reported MIC of "CCc1nc2c(N)ncnc2n1[C@H]1C[C@H](O)[C@@H](CO)O1" is ____.
Reply text: > 400 mg/L

Inquiry: Fill in the blank: the reported MIC of "CCCC#Cc1nc2c(N)ncnc2n1[C@H]1C[C@H](O)[C@@H](CO)O1" is ____.
Reply text: 400 mg/L

Inquiry: Fill in the blank: the reported MIC of "CCCCCc1nc2c(N)ncnc2n1[C@H]1C[C@H](O)[C@@H](CO)O1" is ____.
Reply text: > 200 mg/L

Inquiry: Fill in the blank: the reported MIC of "CCCc1nc2c(N)ncnc2n1[C@H]1C[C@H](O)[C@@H](CO)O1" is ____.
Reply text: > 400 mg/L

Inquiry: Fill in the blank: the reported MIC of "CCCCCCCc1nc2c(N)ncnc2n1[C@H]1C[C@H](O)[C@@H](CO)O1" is ____.
Reply text: > 100 mg/L

Inquiry: Fill in the blank: the reported MIC of "CCC/C=C\c1nc2c(N)ncnc2n1[C@H]1C[C@H](O)[C@@H](CO)O1" is ____.
Reply text: ≥ 200 mg/L

Inquiry: Fill in the blank: the reported MIC of "Nc1ncnc2c1ncn2[C@H]1C[C@H](O)[C@@H](CO)O1" is ____.
Reply text: > 400 mg/L

Inquiry: Fill in the blank: the reported MIC of "O=c1[nH]c(=O)n([C@H]2C[C@H](O)[C@@H](CO)O2)cc1/C=C/Br" is ____.
Reply text: > 400 mg/L

Inquiry: Fill in the blank: the reported MIC of "CCCCC/C=C\c1nc2c(N)ncnc2n1[C@H]1C[C@H](O)[C@@H](CO)O1" is ____.
Reply text: > 100 mg/L

Inquiry: Fill in the blank: the reported MIC of "NC(=O)c1ncn([C@@H]2O[C@H](CO)[C@@H](O)[C@H]2O)n1" is ____.
Reply text: > 400 mg/L
